These measurements were taken from the supplement of paper PMC10567573.

B1: KRT15 (parent)
chain: FGGGSTRGGSLLAGGGGFGGGSLS

Variants of: B1
protocol.text: protein stability index of a GFP-peptide fusion (GPS, HEK-293T) (PSI 1-6); higher = more stable;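 note: lentivirally expressed fusions sorted by FACS into six bins by GFP to DsRed ratio, PSI derived from sequencing read proportions per bin multiplied by bin number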
test.context: c terminus: a fixed tail appended
Entries and their protein stability index values follow.

{"variant.label": "L23Q", "protein stability index": 1.96}
{"variant.label": "L12D", "protein stability index": 3.38}
{"variant.label": "G2S", "protein stability index": 1.75}
{"variant.label": "F1M", "protein stability index": 2.08}
{"variant.label": "G14P", "protein stability index": 2.17}
{"variant.label": "L12Y", "protein stability index": 1.52}
{"variant.label": "S24M", "protein stability index": 3.68}
{"variant.label": "G4E", "protein stability index": 2.55}
{"variant.label": "S24K", "protein stability index": 1.49}
{"variant.label": "G3Y", "protein stability index": 2.2}
{"variant.label": "A13R", "protein stability index": 2.67}
{"variant.label": "G4K", "protein stability index": 2.15}
{"variant.label": "G17T", "protein stability index": 3.32}
{"variant.label": "L12M", "protein stability index": 2.58}
{"variant.label": "G3A", "protein stability index": 1.79}
{"variant.label": "G16D", "protein stability index": 1.84}
{"variant.label": "S22T", "protein stability index": 2.05}
{"variant.label": "S10Q", "protein stability index": 1.89}
{"variant.label": "G15K", "protein stability index": 3.17}
{"variant.label": "G21L", "protein stability index": 1.52}
{"variant.label": "S10R", "protein stability index": 1.4}
{"variant.label": "G17K", "protein stability index": 1.41}
